Reference source: PubChem BioAssay AID1159580

Experiment: chemical genetic growth profiling, strain panel (AID 1159580);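 further: tested at 20 µM; growth read once vehicle control cultures reached saturation at 30 °C; 1 = growth at the plate median or of vehicle wells; lower values mean less growth of the strain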
Conditions: S. cerevisiae deletion strains, growth OD, locus YNL271C, strain bni1, hits give low values
About 2,000 (36%) of roughly 5,500 compounds were called active. Roughly 18% stayed inconclusive and do not appear here. Some of the results follow.
reportedMetric: normalized growth

molecule	observed
CC12CCC3C(CCC4(O)CC(O)CCC34/C=N/NC(N)=O)C1(O)CCC2C1=CC(=O)OC1 (configuration not stated)	0.994
C[C@H]1OC(O[C@H]2[C@@H](O)CC(O[C@H]3[C@@H](O)C[C@H](O[C@H]4CC[C@]5(C)C6CC[C@]7(C)[C@@H](C8=CC(=O)OC8)[C@@H](O)C[C@]7(O)[C@@H]6CC[C@@H]5C4)O[C@@H]3C)O[C@@H]2C)C[C@H](O)C1O (some centres not stated)	0.99
NC(=O)c1cc([N+](=O)[O-])cc([N+](=O)[O-])c1	0.974
O=C(O)c1ccccc1O	0.995
N#Cc1c(Cl)cccc1Cl	1.02
CCCCCC(O)C1C(=O)OC(C)C(O)/C=C/C=C/C=C/C=C/C=C(\C)C(O)CC(O)CC(O)CC(O)CC(O)CC(O)CC1O (configuration not stated)	1.02
COC(=O)C(N)CS (configuration not stated)	0.98
Cc1c(OCC(F)(F)F)ccnc1CS(=O)c1nc2ccccc2[nH]1 (configuration not stated)	0.913
NC(=O)c1ccccc1O	1.02
CC(=O)Oc1ccccc1C(=O)Oc1ccccc1C(=O)O	0.971
O=C(O)c1cc(O)ccc1O	0.994
C[C@H]1O[C@@H](O[C@H]2[C@@H](O)C[C@H](O[C@H]3[C@@H](O)C[C@H](O[C@H]4CC[C@]5(C)C6C[C@@H](O)[C@]7(C)[C@@H](C8=CC(=O)OC8)CC[C@]7(O)C6CC[C@@H]5C4)O[C@@H]3C)O[C@@H]2C)C[C@H](O)[C@@H]1O (some centres not stated)	0.996
NC[C@H]1O[C@H](O[C@H]2[C@H](O)[C@@H](O[C@H]3O[C@H](CO)[C@@H](O)[C@H](N)[C@H]3O)[C@H](N)C[C@@H]2N)[C@H](N)[C@@H](O)[C@@H]1O	0.997
CC1=C2C(O)C(=O)OC3CC4C(C)(C)C(=O)C=C[C@]4(C)C(CC1)[C@]23C (some centres not stated)	1.02
CC1(C)S[C@@H]2[C@H](NC(=O)[C@@H](N)c3ccc(O)cc3)C(=O)N2[C@H]1C(=O)O	1
COC1CC(O[C@H]2CC[C@]3(C=O)C4CC[C@]5(C)C(C6=CC(=O)OC6)CC[C@]5(O)C4CC[C@]3(O)C2)OC(C)C1O (some centres not stated)	1.01
Cc1c(C(N)=O)cc([N+](=O)[O-])cc1[N+](=O)[O-]	0.97
COC(=O)CC1C(C)(C)C(OC(C)=O)[C@@H]2[C@@H](OC(C)=O)[C@]34O[C@@]2(O)[C@]1(C)C3CC[C@]1(C)C4=CC(=O)O[C@H]1c1ccoc1 (some centres not stated)	1
C/C=C(\C)C(=O)O[C@@H]1c2c(ccc3ccc(=O)oc23)OC(C)(C)[C@@H]1OC(C)=O	1
Oc1ccc2c3c1OC1[C@@H](O)CC[C@@]4(O)[C@@H](C2)N(CC2CCC2)CC[C@]314 (some centres not stated)	1.01
NS(=O)(=O)c1cc2c(cc1C(F)(F)F)NC(Cc1ccccc1)NS2(=O)=O (configuration not stated)	1.01
Nc1ccc(S(=O)(=O)Nc2ncccn2)cc1	0.998
C/C=C(/C)C(=O)O[C@@H]1Cc2c(ccc3ccc(=O)oc23)OC1(C)C	0.989
Nc1nc(/C(=C/CC(=O)O)C(=O)N[C@@H]2C(=O)N3C(C(=O)O)=CCS[C@H]23)cs1	0.987
O=C(/C=C(\O)c1ccccc1)c1ccccc1O	0.951
C[C@]12CC[C@H](O)C[C@H]1CCC1C2CC[C@]2(C)[C@@H](C3=CC(=O)OC3)[C@@H](O)C[C@]12O (some centres not stated)	0.999
CC1(C)S[C@@H]2C(N3C(=O)[C@@H](c4ccccc4)NC3(C)C)C(=O)N2[C@H]1C(=O)O (some centres not stated)	1.04
COc1nc(NC(C)C)nc(NC(C)C)n1	1.01
CC[C@@]1(O)C(=O)OCc2c1cc1n(c2=O)Cc2cc3cc(O)ccc3nc2-1	0.991
C[C@H]1[C@H](C)CC[C@]2(C(=O)O)CC[C@]3(C)C(=CCC4[C@@]5(C)C[C@@H](O)[C@H](O)[C@@](C)(CO)C5[C@H](O)C[C@]43C)[C@H]12 (some centres not stated)	0.907
COc1cccc2c1CCC1=CC(=O)CC[C@@]12C	0.985
CO[C@H]1[C@H](O)[C@@H](O[C@H]2CC[C@]3(C=O)C4CC[C@]5(C)[C@@H](C6=CC(=O)OC6)CC[C@]5(O)C4CC[C@@H]3C2)O[C@@H](C)[C@@H]1O (some centres not stated)	1
CC(=O)N1CCCC1C(=O)O (configuration not stated)	1.03
NCCCCN	1.01
CCn1nc(C(=O)O)c(=O)c2cc3c(cc21)OCO3	1.02
CC[C@@]1(O)C(=O)OCc2c1cc1n(c2=O)Cc2cc3ccccc3nc2-1	0.814
CC(C)=CC1C(CO)C1(C)C (configuration not stated)	1
